- assay overview: chemical genetic growth profiling, strain panel (AID 1159580);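 note: tested at 20 µM; growth read once vehicle control cultures reached saturation at 30 °C; 1 = growth at the plate median or of vehicle wells; lower values mean less growth of the strain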
- measurement parameters: S. cerevisiae deletion strains, growth OD, locus YDL134C, strain PPH21, stronger effect = lower value
Out of some 5,500 compounds screened, about 2,000 (36%) were called active. Roughly 18% stayed inconclusive and do not appear here. The list shows a part of the results.
Can you tell me normalized growth for the items I'm about to list?
Answers are plain numbers.

Some solved entries appear below for comparison.
{"columns": ["molecule", "normalized growth"],
 "data": [
  ["FC(F)(F)Oc1ccc(-c2noc(CSc3ccc(Br)cc3)n2)cc1", 0.999],
  ["COC(=O)COc1cc(Cl)c(Cl)cc1Cl", 0.978],
  ["C[C@@H]1O[C@@H](O[C@H]2[C@@H](Oc3cc(O)c4c(c3)O[C@H](c3ccc(O)cc3)CC4=O)O[C@H](CO)[C@@H](O)[C@@H]2O)[C@H](O)[C@H](O)[C@H]1O", 0.956],
  ["CC(C(=O)O)c1ccc2c(c1)[nH]c1ccc(Cl)cc12 (stereo not given)", 1.01]
]}

Next:
Record COC(=O)COc1ccc(Cl)cc1Cl . Reported normalized growth: 1.01

* * *

- assay overview: chemical genetic growth profiling, strain panel (AID 1159580);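 note: tested at 20 µM; growth read once vehicle control cultures reached saturation at 30 °C; 1 = growth at the plate median or of vehicle wells; lower values mean less growth of the strain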
- measurement parameters: S. cerevisiae deletion strains, growth OD, locus YGL248W, strain PDE1, stronger effect = lower value
About 2,000 (36%) of roughly 5,500 compounds were called active. Inconclusive results (about 18%) are left out. Some of the results follow.
Can you tell me normalized growth for the items I'm about to list?
Answers are plain numbers.

Some solved entries appear below for comparison.
{"columns": ["compound", "measurement"],
 "data": [
  ["CCC1(c2ccc(N)cc2)CCC(=O)NC1=O (stereo unspecified)", 0.999],
  ["NC(=O)c1ncn([C@@H]2O[C@H](CO)[C@@H](O)[C@H]2O)c1O", 1.01],
  ["CCC1(C)CC(=O)NC1=O (stereo unspecified)", 1],
  ["C=C(C)/C=C1/C=CC(=O)C(C)=C1", 0.152],
  ["CC1(O)/C=C/C=C(\\CO)C2CC(C)(C)C2(O)CC1 (stereo unspecified)", 1.01]
]}

Next:
Record c1ccc(CN(CC2=NCCN2)c2ccccc2)cc1 . Reported normalized growth: 1

* * *

- assay overview: chemical genetic growth profiling, strain panel (AID 1159580);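 note: tested at 20 µM; growth read once vehicle control cultures reached saturation at 30 °C; 1 = growth at the plate median or of vehicle wells; lower values mean less growth of the strain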
- measurement parameters: S. cerevisiae deletion strains, growth OD, locus YBR021W, strain FUR4
Screen size: about 5,500 compounds; about 2,000 (36%) were called active. Not shown: some 18% with an inconclusive outcome. Rule as the data show it: active = normalized growth mostly below about 0.91 (no sharp cut-off); inconclusive = no clear call, values can overlap the other calls; inactive = mostly above about 0.92. Some of the results follow.
Answer with one of the outcomes yes (active), no (inactive)

{"columns": ["compound", "discrete label"],
 "data": [
  ["COc1ccc(C[C@H]2NC[C@H](O)[C@H]2OC(C)=O)cc1", "no"]
]}

Name the outcome recorded for COC(=O)c1c(Cl)c(Cl)c(C(=O)OC)c(Cl)c1Cl in the assay.
no

Name the outcome recorded for COc1ccc(CC2c3cc(OC)c(OC)cc3CCN2C)cc1OC (stereo unspecified) in the assay.
no

Name the outcome recorded for C=C(C)/C=C1/C=CC(=O)C(C)=C1 in the assay.
yes

Name the outcome recorded for C=CC(C)(C)c1c2c(c(O)c3c(=O)c4ccc(O)c(O)c4oc13)C=CC(C)(C)O2 in the assay.
no

Name the outcome recorded for CCc1cccc(C)c1N(C(=O)CCl)C(C)COC (stereo unspecified) in the assay.
no
